experiment.notes: Pharmacokinetic study of SSR504734 in mice (serum and tissue concentrations by LC-MS/MS, noncompartmental analysis)
Assay type: in vivo
condition.notes: mouse, spleen (relative to serum), ip, 30 mg/kg, spleen, single 30 mg/kg i.p., read-out: Kp (tissue-to-serum partition coefficient)
recorded.metric: Kp

Tell me measured Kp for O=C(NC(c1ccccc1)C1CCCCN1)c1cccc(C(F)(F)F)c1Cl (stereo not shown) please.
50

###

experiment.notes: Pharmacokinetic study of SSR504734 in mice (serum and tissue concentrations by LC-MS/MS, noncompartmental analysis)
Assay type: in vivo
condition.notes: mouse, ip, gut, single 30 mg/kg i.p.
recorded.metric: MRT
Quick note: unit goes after the number.

Tell me measured MRT for O=C(NC(c1ccccc1)C1CCCCN1)c1cccc(C(F)(F)F)c1Cl (stereo not shown) please.
1.96 h

###

experiment.notes: Pharmacokinetic study of SSR504734 in mice (serum and tissue concentrations by LC-MS/MS, noncompartmental analysis)
Assay type: in vivo
condition.notes: mouse, gut (relative to serum), ip, 30 mg/kg, gut, single 30 mg/kg i.p., read-out: Kp (tissue-to-serum partition coefficient)
recorded.metric: Kp

Tell me measured Kp for O=C(NC(c1ccccc1)C1CCCCN1)c1cccc(C(F)(F)F)c1Cl (stereo not shown) please.
28.5

###

experiment.notes: Pharmacokinetic study of SSR504734 in mice (serum and tissue concentrations by LC-MS/MS, noncompartmental analysis)
Assay type: in vivo
condition.notes: mouse, ip, brain, single 30 mg/kg i.p., read-out: Cmax
recorded.metric: Cmax (ng/g)
Give bare numbers, in ng/g.

Tell me measured Cmax for O=C(NC(c1ccccc1)C1CCCCN1)c1cccc(C(F)(F)F)c1Cl (stereo not shown) [SSR504734] please.
5150

###

experiment.notes: Pharmacokinetic study of SSR504734 in mice (serum and tissue concentrations by LC-MS/MS, noncompartmental analysis)
Type: in vivo
condition.notes: mouse, ip, spleen, single 30 mg/kg i.p.
recorded.metric: MRT (h)
One number for each entry, in h.

Tell me measured MRT for O=C(NC(c1ccccc1)C1CCCCN1)c1cccc(C(F)(F)F)c1Cl (stereo not shown) please.
1.66

###

experiment.notes: Pharmacokinetic study of SSR504734 in mice (serum and tissue concentrations by LC-MS/MS, noncompartmental analysis)
Assay type: in vivo
condition.notes: mouse, ip, brain, single 30 mg/kg i.p.
recorded.metric: Tmax
Quick note: unit goes after the number.

Tell me measured Tmax for O=C(NC(c1ccccc1)C1CCCCN1)c1cccc(C(F)(F)F)c1Cl (stereo not shown) please.
30 min

###

experiment.notes: Pharmacokinetic study of SSR504734 in mice (serum and tissue concentrations by LC-MS/MS, noncompartmental analysis)
Format: in vivo
condition.notes: mouse, ip, from serum vs time profile, 30 mg/kg i.p., read-out: apparent clearance (CL/F)
recorded.metric: CL/F
Quick note: unit goes after the number.

Tell me measured CL/F for O=C(NC(c1ccccc1)C1CCCCN1)c1cccc(C(F)(F)F)c1Cl (stereo not shown) please.
77.8 mL/min/kg

###

experiment.notes: Pharmacokinetic study of SSR504734 in mice (serum and tissue concentrations by LC-MS/MS, noncompartmental analysis)
Format: in vivo
condition.notes: mouse, ip, serum, single 30 mg/kg i.p.
recorded.metric: MRT (h)
Give bare numbers, in h.

Tell me measured MRT for O=C(NC(c1ccccc1)C1CCCCN1)c1cccc(C(F)(F)F)c1Cl (stereo not shown) [SSR504734] please.
1.86

###

experiment.notes: Pharmacokinetic study of SSR504734 in mice (serum and tissue concentrations by LC-MS/MS, noncompartmental analysis)
Format: in vivo
condition.notes: mouse, ip, gut, single 30 mg/kg i.p., read-out: Cmax
recorded.metric: Cmax (ng/g)
Answers are plain numbers, in ng/g.

Tell me measured Cmax for O=C(NC(c1ccccc1)C1CCCCN1)c1cccc(C(F)(F)F)c1Cl (stereo not shown) [SSR504734] please.
77900

###

experiment.notes: Pharmacokinetic study of SSR504734 in mice (serum and tissue concentrations by LC-MS/MS, noncompartmental analysis)
Format: in vivo
condition.notes: mouse, ip, kidneys, single 30 mg/kg i.p.
recorded.metric: half-life (h)
Numbers only, in h.

Tell me measured half-life for O=C(NC(c1ccccc1)C1CCCCN1)c1cccc(C(F)(F)F)c1Cl (stereo not shown) please.
1.4

###

experiment.notes: Pharmacokinetic study of SSR504734 in mice (serum and tissue concentrations by LC-MS/MS, noncompartmental analysis)
Format: in vivo
condition.notes: mouse, ip, brain, single 30 mg/kg i.p.
recorded.metric: half-life

Tell me measured half-life for O=C(NC(c1ccccc1)C1CCCCN1)c1cccc(C(F)(F)F)c1Cl (stereo not shown) please.
1.75 h

###

experiment.notes: Pharmacokinetic study of SSR504734 in mice (serum and tissue concentrations by LC-MS/MS, noncompartmental analysis)
Format: in vivo
condition.notes: mouse, ip, adipose, single 30 mg/kg i.p., read-out: Cmax
recorded.metric: Cmax (ng/g)
One number for each entry, in ng/g.

Tell me measured Cmax for O=C(NC(c1ccccc1)C1CCCCN1)c1cccc(C(F)(F)F)c1Cl (stereo not shown) please.
65700

###

experiment.notes: Pharmacokinetic study of SSR504734 in mice (serum and tissue concentrations by LC-MS/MS, noncompartmental analysis)
Type: in vivo
condition.notes: mouse, ip, 30 mg/kg i.p., assuming brain tissue density of ∼1 g/mL, read-out: Cmax in the brain tissue
recorded.metric: Cmax (ng/mL)
Numbers only, in ng/mL.

Tell me measured Cmax for O=C(NC(c1ccccc1)C1CCCCN1)c1cccc(C(F)(F)F)c1Cl (stereo not shown) please.
5150

###

experiment.notes: Pharmacokinetic study of SSR504734 in mice (serum and tissue concentrations by LC-MS/MS, noncompartmental analysis)
Format: in vivo
condition.notes: mouse, ip, heart, single 30 mg/kg i.p.
recorded.metric: half-life (h)
Answers are plain numbers, in h.

Tell me measured half-life for O=C(NC(c1ccccc1)C1CCCCN1)c1cccc(C(F)(F)F)c1Cl (stereo not shown) [SSR504734] please.
1.31
